Target: HyBcl-2-4 lacking 30 C-terminal residues (fusion tag-free) (Hydra vulgaris)
Experiment: ITC
pKd: −log10 of the molar value.

# binder, pKd
data = [
    ("SRNGTVNKEVAHCLKRIGDDLVNNHQLN [HyBax BH3 motif peptide]", 5.64),
    ("SMRRLRAIGACLRAIGDDIQSRSEKS [HyBH3-only-2 BH3 motif peptide]", 6.83),
]
